- PROTOCOL DESCRIPTION: Half life in Beagle dog at 1 mg/kg, iv
- Type: ADME, organism-based, Canis lupus familiaris
- Set-up: dose 1 mg/kg, route intravenous
- CONDITION DESCRIPTION: in vivo
MEASURE: half-life (min)
Numbers only, in min.

// `Cc1ccc(F)cc1NC(=O)Nc1ccc(CC(=O)N2C[C@@H](F)C[C@H]2COc2ccc(C(=O)O)cc2)cc1Cl` : half-life value = 138

====

- PROTOCOL DESCRIPTION: Distribution coefficient, log D at pH 7.4 after 30 mins by shake flask method
- Format: physicochemical
- CONDITION DESCRIPTION: octanol/water
I'd be grateful if you could share measured logD at 0.5 h for these entries.
Numbers only.

Solved cases (3 shown):
Cc1cc(F)ccc1NC(=O)Nc1ccc(CC(=O)N2C[C@@H](F)C[C@H]2COc2ccc(C(=O)O)cc2)cc1Cl    2.1
O=C(Nc1cc(Cl)c(CC(=O)N2C[C@@H](F)C[C@H]2COc2ccc(C(=O)O)cc2)cc1Cl)Nc1ccccc1Br    3.2
Cc1c(F)cccc1NC(=O)Nc1ccc(CC(=O)N2C[C@@H](F)C[C@H]2COc2ccc(C(=O)O)cc2)cc1Cl    2.4

I would be grateful if you could provide logD at 0.5 h for each of the following entries.
1. Cc1cc(NC(=O)Nc2ccccc2Cl)c(Cl)cc1CC(=O)N1C[C@@H](F)C[C@H]1COc1ccc(C(=O)O)cc1
2. Cc1ccccc1NC(=O)Nc1cc(Cl)c(CC(=O)N2C[C@@H](F)C[C@H]2COc2ccc(C(=O)O)cc2)cc1Cl
3. O=C(Nc1cc(F)c(CC(=O)N2C[C@@H](F)C[C@H]2COc2ccc(C(=O)O)cc2)cc1Cl)Nc1ccccc1Br
4. O=C(Nc1ccccc1Cl)Nc1cc(F)c(CC(=O)N2C[C@@H](F)C[C@H]2COc2ccc(C(=O)O)cc2)cc1Cl
5. O=C(Nc1ccccc1Cl)Nc1cc(Cl)c(CC(=O)N2C[C@@H](F)C[C@H]2COc2ccc(C(=O)O)cc2)cc1Cl
6. Cc1ccccc1NC(=O)Nc1cc(F)c(CC(=O)N2C[C@@H](F)C[C@H]2COc2ccc(C(=O)O)cc2)cc1Cl

2.5
2.7
2.9
3
3.2
2.1
